System: SF-539 CNS
EXPERIMENTAL PROTOCOL: NCI tumour cell line growth inhibition, 48 h
List of TGI values.
Could you give me the number in µM? Just the number is fine.

> print(dat)
                                   compound  target.system  quantity.kind  reported.value
1  CCOC(=O)c1sc(NC(=O)COc2ccc(/C=C3\CCc4cc(OC)ccc4C3=O)cc2)nc1C     SF-539 CNS            TGI            23.9
2  S=C(Nc1ccc(-c2nc3ccccc3s2)cc1)Nc1ccc(-c2nc3ccccc3s2)cc1     SF-539 CNS            TGI            42.4
3     CCNc1ccc2c(c1)C(=O)N(OS(C)(=O)=O)C2=O     SF-539 CNS            TGI            51.5

SF-539 CNS TGI of Cc1cc(C)c(-c2c(O)c(Br)c(-c3c(C)cc(C)c(Br)c3C)c(O)c2Br)c(C)c1Br is 8.11

Per the reported SF-539 CNS data, O=C(NCc1cn(Cc2cccc(Oc3ccccc3)c2)nn1)c1cccnc1NCc1ccc(Cl)cc1 has TGI of 5.17
